Numbers sourced from ChEMBL document CHEMBL1201862.

assayed.system: Beta Lactamase (Pseudomonas aeruginosa, UniProt Q932Y6)
Sequence (Q932Y6 whole entry): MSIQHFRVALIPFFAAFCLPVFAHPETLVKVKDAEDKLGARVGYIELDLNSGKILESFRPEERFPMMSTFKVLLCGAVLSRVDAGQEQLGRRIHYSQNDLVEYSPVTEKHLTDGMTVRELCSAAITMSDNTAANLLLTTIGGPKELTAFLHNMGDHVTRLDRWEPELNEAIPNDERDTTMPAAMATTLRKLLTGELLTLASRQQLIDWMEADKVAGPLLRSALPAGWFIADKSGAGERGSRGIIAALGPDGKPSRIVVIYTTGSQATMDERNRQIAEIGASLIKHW
assay.protocol: beta-lactamase reporter inhibitor potency, dose response, artefact control for TLR9-MyD88 binding inhibitor project, BLA reporter cells, FRET fluorescence (AID 588341);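 further: cell based assay in CHO-K1 cells stably expressing beta-lactamase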
Type: cell-based
The source made the active and inactive calls.
measure.name: IC50

O=C1NC(=O)C2C1C(c1ccc([N+](=O)[O-])cc1)=NN2Cc1ccccc1 (stereo not given) = 10.3 µM (inactive)
COc1ccc(C(=O)/C=C/c2ccc(N(C)C)cc2)c(OC)c1 = 4.71 µM (active)
CCN(CC)c1ccc(-c2nc3cnccn3c2NC2CCCC2)cc1 = 5.29 µM (active)
Cc1ccc(S(=O)(=O)c2ccc([N+](=O)[O-])o2)cc1 = 11.2 µM (inactive)

So what's the measured IC50 for this one? Brc1cc(Br)c2nc(-c3ccc(N4CCOCC4)cc3)ccc2c1
2.37 µM (active)

###

assayed.system: Peroxisome proliferator-activated receptor gamma/Nuclear receptor coactivator 2 (Homo sapiens);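 further: agonist potency for raising coactivator recruitment to the receptor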
Sequence (P37231 whole entry): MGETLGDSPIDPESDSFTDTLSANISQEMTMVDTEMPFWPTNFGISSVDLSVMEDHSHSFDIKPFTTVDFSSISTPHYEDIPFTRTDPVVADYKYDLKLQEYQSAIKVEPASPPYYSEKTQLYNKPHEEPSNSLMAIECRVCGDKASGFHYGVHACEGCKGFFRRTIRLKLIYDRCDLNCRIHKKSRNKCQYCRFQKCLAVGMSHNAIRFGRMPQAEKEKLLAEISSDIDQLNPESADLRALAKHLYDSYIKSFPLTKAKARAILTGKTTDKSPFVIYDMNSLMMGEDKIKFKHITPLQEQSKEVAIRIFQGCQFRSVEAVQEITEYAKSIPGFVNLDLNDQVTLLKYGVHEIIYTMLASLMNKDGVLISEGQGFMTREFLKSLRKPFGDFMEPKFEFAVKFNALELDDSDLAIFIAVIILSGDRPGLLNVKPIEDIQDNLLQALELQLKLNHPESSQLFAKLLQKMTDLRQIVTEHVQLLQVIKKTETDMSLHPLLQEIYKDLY
Sequence (Q15596 whole entry, further chain): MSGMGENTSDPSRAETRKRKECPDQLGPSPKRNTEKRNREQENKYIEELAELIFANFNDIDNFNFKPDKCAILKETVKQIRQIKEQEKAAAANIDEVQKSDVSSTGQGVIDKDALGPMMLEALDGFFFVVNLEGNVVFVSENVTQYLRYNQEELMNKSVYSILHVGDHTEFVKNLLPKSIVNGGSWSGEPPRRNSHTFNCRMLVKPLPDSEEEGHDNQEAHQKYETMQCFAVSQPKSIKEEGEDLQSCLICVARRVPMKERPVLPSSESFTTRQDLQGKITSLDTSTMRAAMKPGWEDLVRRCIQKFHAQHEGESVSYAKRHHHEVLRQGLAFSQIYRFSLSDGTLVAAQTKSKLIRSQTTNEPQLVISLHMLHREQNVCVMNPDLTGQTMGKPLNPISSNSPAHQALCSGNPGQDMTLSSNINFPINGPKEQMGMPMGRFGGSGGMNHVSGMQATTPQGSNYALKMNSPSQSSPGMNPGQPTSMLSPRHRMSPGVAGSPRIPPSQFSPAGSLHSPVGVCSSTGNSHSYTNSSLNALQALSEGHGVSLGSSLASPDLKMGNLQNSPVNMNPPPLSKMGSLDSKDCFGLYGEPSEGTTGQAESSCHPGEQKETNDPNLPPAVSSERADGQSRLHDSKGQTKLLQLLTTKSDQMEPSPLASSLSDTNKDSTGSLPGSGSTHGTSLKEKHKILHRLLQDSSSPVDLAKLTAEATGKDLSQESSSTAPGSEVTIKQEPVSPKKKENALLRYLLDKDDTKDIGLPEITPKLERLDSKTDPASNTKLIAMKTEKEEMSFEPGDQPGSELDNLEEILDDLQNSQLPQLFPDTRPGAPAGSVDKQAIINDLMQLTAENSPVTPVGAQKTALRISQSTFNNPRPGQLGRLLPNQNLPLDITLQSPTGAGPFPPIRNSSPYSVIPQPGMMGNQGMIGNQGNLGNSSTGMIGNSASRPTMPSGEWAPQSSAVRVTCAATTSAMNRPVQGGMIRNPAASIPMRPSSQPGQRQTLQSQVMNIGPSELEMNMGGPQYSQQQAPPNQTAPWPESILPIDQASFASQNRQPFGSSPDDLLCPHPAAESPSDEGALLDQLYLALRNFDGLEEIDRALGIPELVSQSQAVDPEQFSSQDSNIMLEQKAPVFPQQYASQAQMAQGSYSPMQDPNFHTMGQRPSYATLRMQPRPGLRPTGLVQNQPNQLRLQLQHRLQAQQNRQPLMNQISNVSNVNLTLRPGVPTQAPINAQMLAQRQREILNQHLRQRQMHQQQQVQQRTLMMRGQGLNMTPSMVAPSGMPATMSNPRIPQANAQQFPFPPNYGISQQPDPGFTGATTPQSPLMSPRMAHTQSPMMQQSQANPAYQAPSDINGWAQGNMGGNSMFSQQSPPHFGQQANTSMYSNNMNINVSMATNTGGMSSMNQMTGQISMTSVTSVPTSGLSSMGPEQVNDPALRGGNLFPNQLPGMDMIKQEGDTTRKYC
Format: functional
measure.name: EC50

Take a look at these entries with their results.
COc1ccc2nc(C)cc(SCC(=O)Nc3c(C)cc(C)cc3C)c2c1 = 27.8 µM (not active)
Cc1nnc(SCc2ccccc2)n1N = > 79.4 µM (not active)

So what's the measured EC50 for this one? CCS(=O)(=O)N1CCN(C2CCC(c3ccccc3)CC2)CC1 (stereo not drawn)
> 79.4 µM (not active)

So what's the measured EC50 for this one? CC(=O)N1CCN(c2ccc(NC(=O)/C=C/c3ccccc3)cc2)CC1
> 79.4 µM (not active)

So what's the measured EC50 for this one? Cc1cccc(N(CC(=O)N2CCN(c3ccc(F)cc3)CC2)S(C)(=O)=O)c1C
> 79.4 µM (not active)

So what's the measured EC50 for this one? CSc1cc(-c2ccc(Cl)cc2)n(Cc2ccccc2)c(=O)c1C#N
41.4 µM (not active)

So what's the measured EC50 for this one? CC1C(Br)C(=O)NC(=O)N1Cc1ccccc1 (stereo not drawn)
> 79.4 µM (not active)

So what's the measured EC50 for this one? COc1cccc(NC(=S)NC(=O)c2c(Cl)c(C)nn2C)c1
> 79.4 µM (not active)

###

assayed.system: Aminopeptidase N (Plasmodium falciparum FcB1/Columbia)
Sequence (O96935 whole entry): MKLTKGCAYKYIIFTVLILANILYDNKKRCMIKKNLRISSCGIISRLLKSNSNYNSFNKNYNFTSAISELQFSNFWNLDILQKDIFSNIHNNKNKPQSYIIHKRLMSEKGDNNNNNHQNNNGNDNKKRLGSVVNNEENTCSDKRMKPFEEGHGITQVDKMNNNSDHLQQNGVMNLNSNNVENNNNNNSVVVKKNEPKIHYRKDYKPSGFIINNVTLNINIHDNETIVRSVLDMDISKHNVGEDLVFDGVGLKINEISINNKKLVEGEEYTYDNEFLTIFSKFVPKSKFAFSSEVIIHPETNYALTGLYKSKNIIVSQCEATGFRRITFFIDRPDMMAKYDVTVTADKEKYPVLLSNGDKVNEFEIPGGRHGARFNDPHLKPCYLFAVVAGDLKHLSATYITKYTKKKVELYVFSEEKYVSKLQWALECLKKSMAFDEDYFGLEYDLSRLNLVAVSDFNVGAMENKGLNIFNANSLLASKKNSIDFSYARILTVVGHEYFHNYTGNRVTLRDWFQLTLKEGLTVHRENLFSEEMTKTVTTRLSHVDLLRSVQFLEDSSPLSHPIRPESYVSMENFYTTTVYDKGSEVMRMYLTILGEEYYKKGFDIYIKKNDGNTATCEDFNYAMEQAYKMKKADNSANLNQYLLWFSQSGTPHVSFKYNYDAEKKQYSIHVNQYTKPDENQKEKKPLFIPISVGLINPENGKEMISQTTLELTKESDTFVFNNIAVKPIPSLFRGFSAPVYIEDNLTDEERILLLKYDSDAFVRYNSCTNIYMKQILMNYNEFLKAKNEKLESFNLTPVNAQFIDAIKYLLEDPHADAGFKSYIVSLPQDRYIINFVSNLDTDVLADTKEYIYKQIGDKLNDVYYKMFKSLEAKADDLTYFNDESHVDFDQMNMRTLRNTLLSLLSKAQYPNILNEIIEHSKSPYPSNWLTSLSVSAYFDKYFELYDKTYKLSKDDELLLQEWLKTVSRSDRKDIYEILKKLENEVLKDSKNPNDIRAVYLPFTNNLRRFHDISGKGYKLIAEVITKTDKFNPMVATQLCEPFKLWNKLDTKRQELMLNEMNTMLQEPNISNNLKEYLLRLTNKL
assay.protocol: P. falciparum M1AAP inhibitors, biochemical, fluorogenic H-Leu-NHMec substrate, 1536-well (AID 1445)
Set-up: species or system Plasmodium falciparum 3D7, 3D7
Active and inactive are the calls of the source.
measure.name: IC50

O=C(O)c1ccccc1-c1nc(-c2ccccc2)c(-c2ccccc2)[nH]1 = 46.6 µM (active)
O=c1nc(N2CCCCC2)nc(Nc2ccccc2)[nH]1 = 51.9 µM (active)

So what's the measured IC50 for this one? CC(/C=C1\SC(=S)N(NS(=O)(=O)c2ccccc2)C1=O)=C\c1ccccc1
45.4 µM (active)

So what's the measured IC50 for this one? O=C(O)c1ccc(S(=O)(=O)Nc2ccc(O)c(Sc3nc4ccccc4s3)c2)cc1
104 µM (active)

So what's the measured IC50 for this one? CC(=O)NS(=O)(=O)c1ccc(/N=c2\ssc3c2-c2ccc(C)cc2NC3(C)C)cc1
89.3 µM (active)

So what's the measured IC50 for this one? CCCCc1cc(=O)oc2c(CN(CC)CC)c(O)c(Cl)cc12
41.5 µM (active)

So what's the measured IC50 for this one? CC(=O)Nc1ccc(S(=O)(=O)Oc2cccc(/C=N/NC3=NC(=O)C(CC(=O)O)S3)c2)cc1 (configuration not stated)
52.8 µM (active)

So what's the measured IC50 for this one? O=C(CP(=O)(c1ccccc1)c1ccccc1)N/N=C/c1cc(Br)cc(Br)c1O
12.4 µM (active)

So what's the measured IC50 for this one? O=C(CSc1nc(O)c2c(C(F)(F)F)cc(-c3cccs3)nc2n1)NCc1ccco1
103 µM (active)

So what's the measured IC50 for this one? Cc1cc(=O)oc2c(CN3CCC(C)CC3)c(O)c(Cl)cc12
32.7 µM (active)

So what's the measured IC50 for this one? Cc1ccc(S(=O)(=O)NC2=NC(=O)/C(=C\c3ccco3)S2)cc1
94 µM (active)

So what's the measured IC50 for this one? Cc1ccc(C)c(CS(=O)(=O)c2cn(CC(=O)N3CCCCC3)c3ccccc23)c1
94.5 µM (active)
